Measurement protocol: in vitro
Test settings: human, Caco-2, Caco-2 (membrane permeability)
*1 amine or outer side, *2 acyl side, *3 side chain or, on linkers, in order; H or OH if unused. Where a SMILES comes first, the peptide text is derived from it. Bridges are numbered along the chain shown (N, C = ends). [ ]: non-standard residue; d: D form. The star is where a group is joined. NMePhe(3-Cl) = CN[C@@H](Cc1cccc(Cl)c1)C(=O)O; X12 = O=C([C@H](CCCC(O)C(F)(F)F)N[*:1])[*:2]; NMehPhe = CN[C@@H](CCc1ccccc1)C(=O)O; NMeF = CN[C@@H](Cc1ccccc1)C(=O)O; NMeI = CC[C@H](C)[C@H](NC)C(=O)O; CH2CH(OH)CF3 = OC(C*)C(F)(F)F; NMeL = CN[C@@H](CC(C)C)C(=O)O; NMeV = CN[C@H](C(=O)O)C(C)C; NMeAbu = CC[C@H](NC)C(=O)O; NMeA = CN[C@@H](C)C(=O)O; Piperidide = C1CCN(*)CC1; CH2CONHMe = CNC(=O)C*; NBuGly = CCCCNCC(=O)O; NPrGly = CCCNCC(=O)O; Sar = CNCC(=O)O; tBu = CC(C)(C)*
For each record, write down the corresponding Papp.
Write the answer as a number in ×10⁻⁶ cm/s, unit excluded.

Exercise: Which Papp reading was recorded for the compound CC[C@H]1C(=O)N[C@@H](COC(C)(C)C)C(=O)N(C)[C@@H](Cc2ccccc2)C(=O)N(C)[C@@H](CC(C)C)C(=O)N[C@H](C(=O)N2CCCCC2)CC(=O)N[C@H](CC(C)C)C(=O)N(C)[C@@H](Cc2ccccc2)C(=O)N[C@@H](CC(C)C)C(=O)N(C)[C@@H](CC)C(=O)N[C@@H](COCC(O)C(F)(F)F)C(=O)N(C)CC(=O)N1C (stereo partly drawn) [Compound C10] ([dL][NMeF]L[NMeAbu]S(CH2CH(OH)CF3)[Sar][NMeAbu]S(tBu)[NMeF][NMeL]D-Piperidide; lactam N-11) ?
Key: 0.95

Exercise: Would you kindly share the measured Papp for CCCCN1CC(=O)N(C)[C@@H](Cc2ccccc2)C(=O)N[C@@H]([C@@H](C)CC)C(=O)N(C)[C@@H](CC(C)C)C(=O)N[C@@H]([C@@H](C)O)C(=O)N(CCCC)CC(=O)N(C)[C@@H](Cc2ccccc2)C(=O)N(C)[C@@H](CC(C)C)C(=O)N[C@@H](CCC(=O)NC)C(=O)N(C)[C@@H]([C@@H](C)CC)C(=O)N[C@H](C(=O)N2CCCCC2)CC1=O [Compound J06] ([NBuGly][NMeF]I[NMeL]T[NBuGly][NMeF][NMeL]E(NHMe)[NMeI]D-Piperidide; lactam N-11) ?
Key: 0.0085

Exercise: Fill blank: measured Papp of the compound CCCCN1CC(=O)N(C)[C@@H](CC(C)C)C(=O)N[C@H](C(=O)N2CCCCC2)CC(=O)N(C)[C@@H](C)C(=O)N[C@@H](COCC(O)C(F)(F)F)C(=O)N(C)[C@@H](CC(C)C)C(=O)N(C)[C@@H](Cc2ccccc2)C(=O)N[C@@H](CC(C)C)C(=O)N(C)[C@@H](Cc2ccccc2)C(=O)N(C)[C@@H]([C@@H](C)CC)C(=O)N[C@@H]([C@@H](C)O)C1=O (stereo partly drawn) [Compound C04] ([NMeA]S(CH2CH(OH)CF3)[NMeL][NMeF]L[NMeF][NMeI]T[NBuGly][NMeL]D-Piperidide; lactam N-11) is ____.
Key: 0.29

Exercise: Data request, read-out Papp, for CCCN1CC(=O)N(C)[C@@H](CC(C)C)C(=O)N[C@H](C(=O)N2CCCCC2)CC(=O)N(C)[C@@H](CC(C)C)C(=O)N[C@@H](CCC(=O)NC)C(=O)N(C)[C@@H](CC(C)C)C(=O)N(C)[C@@H](Cc2ccccc2)C(=O)N[C@@H](CC(C)C)C(=O)N(C)[C@@H](Cc2ccccc2)C(=O)N(C)[C@@H]([C@@H](C)CC)C(=O)N[C@@H]([C@@H](C)O)C1=O [Compound J03] ([NMeL]E(NHMe)[NMeL][NMeF]L[NMeF][NMeI]T[NPrGly][NMeL]D-Piperidide; lactam N-11)
Key: 0.21

Exercise: Would you mind telling me what Papp value was observed for CCCCN1CC(=O)N(C)[C@@H](Cc2ccccc2)C(=O)N(C)[C@@H](CC(C)C)C(=O)N[C@@H](COC(C)(C)C)C(=O)N(C)[C@@H](CC(C)C)C(=O)N[C@H](C(=O)N2CCCCC2)CC(=O)N(C)CC(=O)N(C)[C@@H](Cc2cccc(Cl)c2)C(=O)N[C@@H](CCCC(O)C(F)(F)F)C(=O)N(C)[C@@H](CC(C)C)C(=O)N[C@@H]([C@@H](C)O)C1=O (stereo partly drawn) [Compound D06] ([Sar][NMePhe(3-Cl)][X12][NMeL]T[NBuGly][NMeF][NMeL]S(tBu)[NMeL]D-Piperidide; lactam N-11) ?
Key: 0.23

Exercise: Name the recorded Papp for CCCCN1CC(=O)N(C)[C@@H](CC(C)C)C(=O)N[C@@H](COCC(O)C(F)(F)F)C(=O)N(C)[C@@H](Cc2ccccc2)C(=O)N(C)[C@@H](C(C)C)C(=O)N[C@H](C(=O)N2CCCCC2)CC(=O)N[C@H](C(C)C)C(=O)N(C)[C@@H](Cc2ccccc2)C(=O)N[C@@H](CC(C)C)C(=O)N(C)[C@@H](CC(C)C)C(=O)N[C@@H]([C@@H](C)O)C1=O (stereo partly drawn) [Compound C09] ([dV][NMeF]L[NMeL]T[NBuGly][NMeL]S(CH2CH(OH)CF3)[NMeF][NMeV]D-Piperidide; lactam N-11) .
Key: 0.12

Exercise: # input compound: CCCCN1CC(=O)N(C)[C@@H](CC(C)C)C(=O)N[C@@H](COCC(=O)NC)C(=O)N(C)[C@@H](CCc2ccccc2)C(=O)N(C)[C@@H](CC(C)C)C(=O)N[C@H](C(=O)N2CCCCC2)CC(=O)N[C@H](CC(C)C)C(=O)N(C)[C@@H](CC(C)C)C(=O)N[C@@H](Cc2ccccc2)C(=O)N(C)[C@@H](CC(C)C)C(=O)N[C@@H]([C@@H](C)O)C1=O [Compound I02] ([dL][NMeL]F[NMeL]T[NBuGly][NMeL]S(CH2CONHMe)[NMehPhe][NMeL]D-Piperidide; lactam N-11) ; wanted: its Papp
Key: 0.052

Exercise: Papp lookup needed for CCCCN1CC(=O)N(C)[C@@H](Cc2ccccc2)C(=O)N(C)[C@@H](CC(C)C)C(=O)N[C@@H](COC(C)(C)C)C(=O)N(C)[C@@H](CC(C)C)C(=O)N[C@H](C(=O)N2CCCCC2)CC(=O)N(C)CC(=O)N(C)[C@@H](Cc2ccccc2)C(=O)N[C@@H](C(C)C)C(=O)N(C)[C@@H](CC)C(=O)N[C@@H](CCCC(O)C(F)(F)F)C1=O (stereo partly drawn) [Compound D16] ([Sar][NMeF]V[NMeAbu][X12][NBuGly][NMeF][NMeL]S(tBu)[NMeL]D-Piperidide; lactam N-11) , thanks.
Key: 0.51

Exercise: So what's the measured Papp for this one? CCCCN1CC(=O)N(C)[C@@H](Cc2ccccc2)C(=O)N(C)[C@@H](CC(C)C)C(=O)N[C@@H](COC(C)(C)C)C(=O)N(C)[C@@H](CC(C)C)C(=O)N[C@H](C(=O)N2CCCCC2)CC(=O)N(C)CC(=O)N(C)[C@@H](Cc2ccccc2)C(=O)N[C@@H](C(C)C)C(=O)N(C)[C@@H](CC)C(=O)N[C@@H](COCC(O)C(F)(F)F)C1=O (stereo partly drawn) [Compound C16] ([Sar][NMeF]V[NMeAbu]S(CH2CH(OH)CF3)[NBuGly][NMeF][NMeL]S(tBu)[NMeL]D-Piperidide; lactam N-11)
Key: 0.41

====

Measurement protocol: Membrane permeability test of cyclic peptides (Caco-2, modified/improved method of WO 2018/124162)
Test settings: human, Caco-2, Caco-2 (membrane permeability), Table 6, cyclic peptides containing Ser(1-CF3-EtOH) (C) or Hnl(7-F3-6-OH) (D)
*1 amine or outer side, *2 acyl side, *3 side chain or, on linkers, in order; H or OH if unused. Where a SMILES comes first, the peptide text is derived from it. [ ]: non-standard residue; d: D form. The star is where a group is joined. X13 = O=C(C1CCCCC1)[C@H](CC(=O)[*:2])N[*:1]; NMeF = CN[C@@H](Cc1ccccc1)C(=O)O; CH2CH(OH)CF3 = OC(C*)C(F)(F)F; NMeL = CN[C@@H](CC(C)C)C(=O)O; Sar = CNCC(=O)O; tBu = CC(C)(C)*
Observable: Papp

Exercise: What value of Papp has been reported for the following compound? CC(C)C[C@H]1C(=O)N[C@@H](COC(C)(C)C)C(=O)N(C)[C@@H](Cc2ccccc2)C(=O)N(C)[C@@H](CC(C)C)C(=O)N[C@H](C(=O)C2CCCCC2)CC(=O)N[C@H](C(C)C)C(=O)N(C)[C@@H](Cc2ccccc2)C(=O)N[C@@H](COCC(O)C(F)(F)F)C(=O)N(C)[C@@H](CC(C)C)C(=O)N[C@@H](C(C)C)C(=O)N(C)CC(=O)N1C (stereo partly shown) [Compound D11] (cyclo([NMeF][NMeL][X13][dV][NMeF]S(CH2CH(OH)CF3)[NMeL]V[Sar][NMeL]S(tBu)))
Key: 0.21 ×10⁻⁶ cm/s

The reported measurements were obtained from patent US20230096766A1.
